# target: CDK6/cyclin D1 (Homo sapiens) (UniProt P24385+Q00534)
# assayInfo: Inhibition of human CDK6/cycD1 expressed in Sf9 cells at 10 uM; values are per cent of control
Assign rule met whenever residual activity does not fall below 70%; assign rule not met whenever it does.

# structureSmiles, labelClass
records = [
    ("O=C1NC(=O)C(c2c[nH]c3ccccc23)=C1c1ccccc1", "rule not met"),
    ("COc1ccc(C2=C(c3c[nH]c4ccccc34)C(=O)NC2=O)cc1", "rule not met"),
    ("COc1ccc(C2=C(c3c[nH]c4ccccc34)C(=O)NC2=O)cc1OC", "rule met"),
    ("COc1cc2c3c(c4c5ccccc5[nH]c4c2c(OC)c1OC)C(=O)NC3=O", "rule not met"),
    ("O=C1NC(=O)c2c1c1ccccc1c1[nH]c3ccccc3c21", "rule met"),
    ("COc1ccc2[nH]cc(C3=C(c4cc(OC)c(OC)c(OC)c4)C(=O)NC3=O)c2c1", "rule met"),
    ("COc1ccc(C2=C(c3ccccc3)C(=O)NC2=O)cc1", "rule met"),
    ("O=C1NC(=O)C(c2c[nH]c3ccccc23)=C1c1ccc(Cl)cc1", "rule met"),
    ("O=C1NC(=O)C(c2c[nH]c3ccccc23)=C1c1cccc2ccccc12", "rule not met"),
    ("COc1cc(C2=C(c3c(-c4ccccc4)[nH]c4ccccc34)C(=O)NC2=O)cc(OC)c1OC", "rule met"),
    ("COc1cc(C2=C(c3cc[nH]c3)C(=O)NC2=O)cc(OC)c1OC", "rule met"),
    ("COc1ccc2[nH]c3c4c(OC)c(OC)c(OC)cc4c4c(c3c2c1)C(=O)NC4=O", "rule met"),
    ("COc1cc(C2=C(c3cc4ccccc4[nH]3)C(=O)NC2=O)cc(OC)c1OC", "rule not met"),
    ("COc1cc2c3c(c4c5ccccc5n(C)c4c2c(OC)c1OC)C(=O)NC3=O", "rule not met"),
    ("COc1ccc(C2=C(c3cc(OC)c(OC)c(OC)c3)C(=O)NC2=O)cc1", "rule met"),
    ("COc1cc(C2=C(c3c(C)[nH]c4ccccc34)C(=O)NC2=O)cc(OC)c1OC", "rule not met"),
]

---

# target: Protein kinase C iota type (Homo sapiens)
# assayInfo: Inhibition of human PKC iota expressed in Sf9 cells at 10 uM; values are per cent of control
Assign MET whenever residual activity does not fall below 80%; assign NOT MET whenever it does.

# structureSmiles, labelClass
records = [
    ("COc1cc(C2=C(c3cc4ccccc4[nH]3)C(=O)NC2=O)cc(OC)c1OC", "MET"),
    ("O=C1NC(=O)C(c2c[nH]c3ccccc23)=C1c1cccc2ccccc12", "NOT MET"),
    ("O=C1NC(=O)C(c2ccccc2)=C1c1ccccc1", "MET"),
    ("COc1ccc(C2=C(c3ccccc3)C(=O)NC2=O)cc1OC", "MET"),
]

---

# target: Vascular endothelial growth factor receptor 2 (Homo sapiens, UniProt P35968)
# Sequence (P35968 whole entry): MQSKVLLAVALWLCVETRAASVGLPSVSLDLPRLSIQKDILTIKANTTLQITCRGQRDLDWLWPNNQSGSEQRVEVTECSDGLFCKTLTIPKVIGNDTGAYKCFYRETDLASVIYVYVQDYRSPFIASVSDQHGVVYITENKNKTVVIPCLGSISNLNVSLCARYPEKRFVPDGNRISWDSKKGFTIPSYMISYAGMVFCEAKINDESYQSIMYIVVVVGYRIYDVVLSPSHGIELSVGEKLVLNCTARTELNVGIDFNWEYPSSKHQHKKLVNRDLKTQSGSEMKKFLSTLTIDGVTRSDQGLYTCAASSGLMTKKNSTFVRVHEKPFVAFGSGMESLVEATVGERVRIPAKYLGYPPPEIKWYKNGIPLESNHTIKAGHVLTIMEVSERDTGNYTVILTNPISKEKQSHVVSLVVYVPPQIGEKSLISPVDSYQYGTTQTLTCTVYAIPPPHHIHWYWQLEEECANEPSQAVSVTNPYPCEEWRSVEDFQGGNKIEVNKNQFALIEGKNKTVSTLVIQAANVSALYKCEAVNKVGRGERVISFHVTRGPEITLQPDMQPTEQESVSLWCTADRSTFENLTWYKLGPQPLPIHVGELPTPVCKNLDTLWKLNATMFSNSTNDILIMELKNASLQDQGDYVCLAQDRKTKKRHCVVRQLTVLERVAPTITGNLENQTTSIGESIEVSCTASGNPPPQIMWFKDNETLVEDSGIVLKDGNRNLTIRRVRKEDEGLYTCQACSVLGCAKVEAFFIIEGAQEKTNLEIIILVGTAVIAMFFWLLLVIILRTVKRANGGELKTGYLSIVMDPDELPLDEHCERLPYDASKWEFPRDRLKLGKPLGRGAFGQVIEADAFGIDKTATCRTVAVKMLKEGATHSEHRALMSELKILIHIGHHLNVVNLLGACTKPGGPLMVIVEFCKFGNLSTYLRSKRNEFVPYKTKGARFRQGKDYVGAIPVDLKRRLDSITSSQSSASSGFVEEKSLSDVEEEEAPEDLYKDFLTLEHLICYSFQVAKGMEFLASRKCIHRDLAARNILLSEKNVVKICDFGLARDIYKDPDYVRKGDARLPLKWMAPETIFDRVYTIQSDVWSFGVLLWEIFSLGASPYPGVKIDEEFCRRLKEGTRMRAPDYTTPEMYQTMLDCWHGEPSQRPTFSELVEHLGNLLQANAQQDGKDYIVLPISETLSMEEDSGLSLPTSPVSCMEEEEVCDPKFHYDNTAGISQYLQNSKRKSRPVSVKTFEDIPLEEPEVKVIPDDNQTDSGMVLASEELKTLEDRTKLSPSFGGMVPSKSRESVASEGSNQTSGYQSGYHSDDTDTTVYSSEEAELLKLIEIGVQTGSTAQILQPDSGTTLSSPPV
# assayInfo: Inhibition of human VEGFR2 expressed in Sf9 cells at 100 uM; values are per cent of control
Assign Condition met whenever residual activity does not fall below 20%; assign Condition not met whenever it does.

# molecule, labelClass
measured = [
    ("COc1cc2c3c(c4c5ccccc5[nH]c4c2c(OC)c1OC)C(=O)NC3=O", "Condition not met"),
    ("O=C1NC(=O)c2c1c1ccccc1c1[nH]c3ccccc3c21", "Condition met"),
    ("COc1ccc(C2=C(c3ccccc3)C(=O)NC2=O)cc1OC", "Condition met"),
    ("O=C1NC(=O)C(c2ccccc2)=C1c1ccccc1", "Condition met"),
    ("COc1cc(C2=C(c3c[nH]c4ccccc34)C(=O)NC2=O)cc(OC)c1OC [MALEIMIDE]", "Condition not met"),
    ("COc1cc(C2=C(c3c(-c4ccccc4)[nH]c4ccccc34)C(=O)NC2=O)cc(OC)c1OC", "Condition met"),
    ("O=C1NC(=O)C(c2c[nH]c3ccccc23)=C1c1cccc2ccccc12", "Condition not met"),
    ("COc1ccc(C2=C(c3ccc(OC)cc3)C(=O)NC2=O)cc1", "Condition met"),
]

---

# target: Protein kinase C iota type (Homo sapiens) (UniProt P41743)
# Sequence (whole entry): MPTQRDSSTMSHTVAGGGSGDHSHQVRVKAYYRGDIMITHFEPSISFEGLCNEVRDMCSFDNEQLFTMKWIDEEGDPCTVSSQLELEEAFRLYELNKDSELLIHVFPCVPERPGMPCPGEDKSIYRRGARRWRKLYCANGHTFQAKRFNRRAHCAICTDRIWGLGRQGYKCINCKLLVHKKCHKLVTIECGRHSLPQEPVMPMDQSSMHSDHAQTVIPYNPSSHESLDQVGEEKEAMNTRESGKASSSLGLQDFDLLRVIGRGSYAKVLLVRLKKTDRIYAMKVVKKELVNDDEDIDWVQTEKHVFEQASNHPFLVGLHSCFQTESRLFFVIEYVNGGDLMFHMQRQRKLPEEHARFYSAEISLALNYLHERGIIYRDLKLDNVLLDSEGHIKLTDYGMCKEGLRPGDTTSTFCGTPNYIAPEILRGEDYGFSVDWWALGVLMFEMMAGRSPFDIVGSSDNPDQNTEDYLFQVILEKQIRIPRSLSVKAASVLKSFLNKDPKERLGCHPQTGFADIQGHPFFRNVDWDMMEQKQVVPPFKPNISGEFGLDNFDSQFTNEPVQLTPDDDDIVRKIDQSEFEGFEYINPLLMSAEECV
# assayInfo: Inhibition of human PKC iota expressed in Sf9 cells at 10 uM; values are per cent of control
In this section, each of the compounds is paired with its reported residual activity.
measurementType: residual activity (%)

# structureSmiles, target, u, endpointValue
records = [
    ("COc1ccc2[nH]cc(C3=C(c4cc(OC)c(OC)c(OC)c4)C(=O)NC3=O)c2c1", "Protein kinase C iota type (Homo sapiens) (UniProt P41743)", "%", 85),
    ("COc1cc(C2=C(c3cn(C)c4ccccc34)C(=O)NC2=O)cc(OC)c1OC", "Protein kinase C iota type (Homo sapiens) (UniProt P41743)", "%", 93),
    ("COc1ccc(C2=C(c3cc(OC)c(OC)c(OC)c3)C(=O)NC2=O)cc1", "Protein kinase C iota type (Homo sapiens) (UniProt P41743)", "%", 97),
    ("COc1cc2c3c(c4c5ccccc5n(C)c4c2c(OC)c1OC)C(=O)NC3=O", "Protein kinase C iota type (Homo sapiens) (UniProt P41743)", "%", 80),
    ("COc1ccc2[nH]c3c4c(OC)c(OC)c(OC)cc4c4c(c3c2c1)C(=O)NC4=O", "Protein kinase C iota type (Homo sapiens) (UniProt P41743)", "%", 85),
    ("O=C1NC(=O)C(c2c[nH]c3ccccc23)=C1c1ccc(Cl)cc1", "Protein kinase C iota type (Homo sapiens) (UniProt P41743)", "%", 84),
    ("COc1ccc(C2=C(c3cc(OC)c(OC)c(OC)c3)C(=O)NC2=O)cc1O", "Protein kinase C iota type (Homo sapiens) (UniProt P41743)", "%", 103),
    ("COc1cc(C2=C(c3cc[nH]c3)C(=O)NC2=O)cc(OC)c1OC", "Protein kinase C iota type (Homo sapiens) (UniProt P41743)", "%", 92),
    ("COc1cc(C2=C(c3c(-c4ccccc4)[nH]c4ccccc34)C(=O)NC2=O)cc(OC)c1OC", "Protein kinase C iota type (Homo sapiens) (UniProt P41743)", "%", 81),
    ("COc1ccc(C2=C(c3ccc(OC)cc3)C(=O)NC2=O)cc1", "Protein kinase C iota type (Homo sapiens) (UniProt P41743)", "%", 95),
]

---

In this section, each of the compounds is paired with its reported residual activity.
# target: Protein kinase C alpha type (Mus musculus)
# assayInfo: Inhibition of mouse PKC alpha expressed in Sf9 cells at 100 uM
# runParameters: values are per cent of control

# compound, residual activity (%)
records = [
    ("COc1ccc(C2=C(c3ccccc3)C(=O)NC2=O)cc1", 105),
    ("COc1cc(C2=C(c3c(C)[nH]c4ccccc34)C(=O)NC2=O)cc(OC)c1OC", 78),
    ("O=C1NC(=O)c2c1c1ccccc1c1[nH]c3ccccc3c21", 58),
    ("COc1cc(C2=C(c3cc4ccccc4[nH]3)C(=O)NC2=O)cc(OC)c1OC", 69),
    ("COc1ccc(C2=C(c3ccc(OC)cc3)C(=O)NC2=O)cc1", 96),
    ("COc1ccc(C2=C(c3cc(OC)c(OC)c(OC)c3)C(=O)NC2=O)cc1O", 69),
    ("COc1ccc(C2=C(c3cc(OC)c(OC)c(OC)c3)C(=O)NC2=O)cc1", 85),
    ("O=C1NC(=O)C(c2ccccc2)=C1c1ccccc1", 102),
    ("COc1cc(C2=C(c3c(-c4ccccc4)[nH]c4ccccc34)C(=O)NC2=O)cc(OC)c1OC", 94),
    ("COc1ccc2[nH]c3c4c(OC)c(OC)c(OC)cc4c4c(c3c2c1)C(=O)NC4=O", 59),
    ("COc1ccc(C2=C(c3c[nH]c4ccccc34)C(=O)NC2=O)cc1", 55),
    ("COc1ccc2[nH]cc(C3=C(c4cc(OC)c(OC)c(OC)c4)C(=O)NC3=O)c2c1", 56),
    ("COc1cc2c3c(c4c5ccccc5[nH]c4c2c(OC)c1OC)C(=O)NC3=O", 40),
    ("O=C1NC(=O)C(c2c[nH]c3ccccc23)=C1c1ccc(Cl)cc1", 112),
    ("COc1cc2c3c(c4c5ccccc5n(C)c4c2c(OC)c1OC)C(=O)NC3=O", 86),
    ("COc1cc(C2=C(c3cc[nH]c3)C(=O)NC2=O)cc(OC)c1OC", 67),
    ("COc1ccc(C2=C(c3c[nH]c4ccccc34)C(=O)NC2=O)cc1OC", 57),
    ("O=C1NC(=O)C(c2c[nH]c3ccccc23)=C1c1cccc2ccccc12", 2),
    ("O=C1NC(=O)C(c2c[nH]c3ccccc23)=C1c1ccccc1", 54),
    ("COc1cc(C2=C(c3ccccc3)C(=O)NC2=O)cc(OC)c1OC", 91),
    ("COc1cc(C2=C(c3cn(C)c4ccccc34)C(=O)NC2=O)cc(OC)c1OC", 18),
    ("COc1cc(C2=C(c3c[nH]c4ccccc34)C(=O)NC2=O)cc(OC)c1OC [MALEIMIDE]", 33),
    ("COc1ccc(C2=C(c3ccccc3)C(=O)NC2=O)cc1OC", 86),
]

Ref: ChEMBL document CHEMBL1149451
